system: P-gp (MDR1); experiment: MDR1-MDCK Efflux Ratio Assay; format: in vitro ADME; conditions: dog, MDCK-MDR1, pH 7.4, MDR1-MDCK cells, 2 hr, pH 7.4; read-out: MDR1-MDCK Efflux Ratio (B-A/A-B)
measure: efflux ratio at 2 h

Exercise: Please give measured efflux ratio at 2 h of the following entry: CC(=O)Nc1ncc(CN2C[C@H](Oc3cc(N4CCOCC4)ncn3)C[C@@H]2C)s1 [Example 1-130]
Key: 30.3

Exercise: Specify efflux ratio at 2 h for COc1cnc(O[C@@H]2C[C@H](C)N(Cc3cnc(NC(C)=O)s3)C2)cn1 [Example 1-73] and stop.
Key: 2.9

Exercise: Read off the recorded efflux ratio at 2 h for CC(=O)Nc1nc(F)c(CN2CCC[C@@H](Oc3cc(C)nc(C)c3)C2)s1 [Example 1-55]
Key: 19

Exercise: Given the compound COc1cc(O[C@H]2C[C@H](C)N(Cc3cnc(NC(C)=O)s3)C2)ncn1 [Example 1-39] , write its reported efflux ratio at 2 h.
Key: 4.5

Exercise: Determine from records and report efflux ratio at 2 h for COc1ccc(O[C@@H]2C[C@H](C)N(Cc3sc(NC(C)=O)nc3F)C2)nc1 [Example 1-98]
Key: 2.1

(P) CC(=O)Nc1nc(F)c(CN2C[C@H](Oc3ccnc(F)c3)C[C@@H]2C)s1 [Example 1-97]
(Q) CC(=O)Nc1ncc(CN2CC[C@@H](Oc3ccc(F)cn3)C2)s1 [Example 1-6]
(R) CC(=O)Nc1nc(F)c(CN2CCC[C@H](Oc3cc(C)nc(C)c3)C2)s1 [Example 1-54]
(S) COc1ccnc(O[C@@H]2C[C@H](C)N(Cc3sc(NC(C)=O)nc3F)C2)n1 [Example 1-91]
Exercise: # desc sort on efflux ratio at 2 h across 4 compounds Kindly provide the labels arranged according to the requested ordering.
Key: R, S, P, Q
